- STUDY_SYSTEM: T1, PD-L1-Fc (PD-L1 antigen protein, extracellular region Met1-Thr239 fused to human Fc) (human, UniProt Q9NZQ7 19-239)
- T1 construct: range 1-239; the secreted protein lacks it; also called PD-L1-Fc antigen; pCEP4-PDL1-Fc product; not shown: human Fc fragment of the pCEP4-Fc vector
- T1 sequence (Q9NZQ7 19-239): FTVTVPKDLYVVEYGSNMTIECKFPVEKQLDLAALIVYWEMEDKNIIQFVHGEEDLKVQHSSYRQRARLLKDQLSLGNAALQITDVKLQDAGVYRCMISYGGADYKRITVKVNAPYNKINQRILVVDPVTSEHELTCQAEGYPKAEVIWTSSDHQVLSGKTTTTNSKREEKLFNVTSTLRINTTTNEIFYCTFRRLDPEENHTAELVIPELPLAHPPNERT
- PROTOCOL: BLI (Octet); PD-1-coated biosensor dipped in a mix of PD-L1 antigen protein and antibody; KD from the Octet software
Task for the reader: assign each of the following binders its reported Kd.
Kindly answer with a numeric value in nM, unit omitted.

response.value for KL001-23 (antibody, V domains shown) VH: QVQLVESGAEVKKPGSSVKVSCKASGGTFSSYAISWVRQAPGQGLEWMGRIIPILGIANYAQKFQGRVTVTADKSTSTAYMELSSLRSEDTAVYYCARSGYGYAYGVFDHWGQGTLVTVSS VL: QLVLTQPPSVSGAPGQTVTISCTGPTIGAGYDVHWYQQLPGAAPKLLIYGNLNRPSGVPDRFSGSKSGTSASLAITDLQAEDEADYYCQSYDSRLGVVFGGGTKLTVL (field: Kd) = 0.0267

response.value for KL001-02 (antibody, V domains shown) VH: QVQLVESGAEVKKPGSSVKVSCKASGGTFSSYAISWVRQAPGQGLEWMGRIIPILGIANYAQKFQGRVTVTADKSTSTAYMELSSLRSEDTAVYYCARSGHGYAYGSFDYWGQGTLVTVSS VL: QLVLTQPPSVSGAPGQTVTISCTGPTIGQGYDVHWYQQLPGAAPKLLIYGNLNRPSGVPDRFSGSKSGTSASLAITDLQAEDEADYYCQSYDSRLGVVFGGGTKLTVL (field: Kd) = 0.0216

response.value for KL001-21 (antibody, V domains shown) VH: QVQLVESGAEVKKPGSSVKVSCKASGGTFSSYAISWVRQAPGQGLEWMGRIIPVLGIANYAQKFQGRVTVTADKSTSTAYMELSSLRSEDTAVYYCARSGYGYAYGSFDYWGQGTLVTVSS VL: QLVLTQPPSVSGAPGQTVTISCTGPTIGAGYDVHWYQQLPGAAPKLLIYGNLNRPSGVPDRFSGSKSGTSASLAITDLQAEDEADYYCQAYDSTLGVVFGGGTKLTVL (field: Kd) = 0.0283
